Assay: Partition coefficient (logP)
Type: physicochemical
Conditions: octanol/water
Quick reference: logP of the listed items.
Form field (numeric): enter value without unit.

As a guide, the following entries are already answered.
>>> obs_value("CCc1cnc(NCc2ccc3c(n2)NCCC3)c(=O)n1CC(=O)N[C@@H](CC(=O)O)c1cccc(F)c1")
-0.47
>>> obs_value("O=C(O)C[C@H](NC(=O)Cn1c(C2CC2)cnc(NCc2ccc3c(n2)NCCC3)c1=O)c1ccc2c(c1)OCO2")
-0.1
>>> obs_value("O=C(O)C[C@H](NC(=O)Cn1c(C2CC2)c(Cl)nc(NCc2ccc3c(n2)NCCC3)c1=O)c1cccc(F)c1")
1.1
>>> obs_value("O=C(O)C[C@H](NC(=O)Cn1c(C2CC2)c(Cl)nc(NCc2ccc3c(n2)NCCC3)c1=O)c1ccc2c(c1)OCC2")
0.9
>>> obs_value("O=C(O)C[C@H](NC(=O)Cn1cccc(NCc2ccc3c(n2)NCCC3)c1=O)c1cccnc1")
1.55
>>> obs_value("O=C(O)C[C@H](NC(=O)Cn1c(C2CC2)ccc(NCc2ccc3c(n2)NCCC3)c1=O)c1ccc2c(c1)OCC2")
0.28
>>> obs_value("O=C(O)C[C@H](NC(=O)Cn1c(C2CC2)c(Cl)nc(NCc2ccc3c(n2)NCCC3)c1=O)c1cnc2ccccc2c1")
1.12
>>> obs_value("O=C(O)C[C@H](NC(=O)Cn1c(C2CC2)cnc(NCc2ccc3c(n2)NCCC3)c1=O)c1cccnc1")
0.25
>>> obs_value("C#C[C@H](CC(=O)O)NC(=O)Cn1c(C2CC2)ccc(NCc2ccc3c(n2)NCCC3)c1=O")
-0.97
>>> obs_value("CCc1c(Cl)nc(NCc2ccc3c(n2)NCCC3)c(=O)n1CC(=O)N[C@@H](CC(=O)O)c1cccc(F)c1")
1.3

Kindly indicate its recorded logP. Item: Cc1ccc(NCc2ccc3c(n2)NCCC3)c(=O)n1CC(=O)N[C@@H](CC(=O)O)c1cccnc1
-1.46

Kindly indicate its recorded logP. Item: O=C(O)C[C@H](NC(=O)Cn1c(-c2ccccc2)c(Cl)nc(NCc2ccc3c(n2)NCCC3)c1=O)c1cccc(F)c1
1.6

---

Biological target: Integrin alpha-V/beta-3 (Homo sapiens, UniProt P05106+P06756)
Sequence (P05106 27-788 limits assumed): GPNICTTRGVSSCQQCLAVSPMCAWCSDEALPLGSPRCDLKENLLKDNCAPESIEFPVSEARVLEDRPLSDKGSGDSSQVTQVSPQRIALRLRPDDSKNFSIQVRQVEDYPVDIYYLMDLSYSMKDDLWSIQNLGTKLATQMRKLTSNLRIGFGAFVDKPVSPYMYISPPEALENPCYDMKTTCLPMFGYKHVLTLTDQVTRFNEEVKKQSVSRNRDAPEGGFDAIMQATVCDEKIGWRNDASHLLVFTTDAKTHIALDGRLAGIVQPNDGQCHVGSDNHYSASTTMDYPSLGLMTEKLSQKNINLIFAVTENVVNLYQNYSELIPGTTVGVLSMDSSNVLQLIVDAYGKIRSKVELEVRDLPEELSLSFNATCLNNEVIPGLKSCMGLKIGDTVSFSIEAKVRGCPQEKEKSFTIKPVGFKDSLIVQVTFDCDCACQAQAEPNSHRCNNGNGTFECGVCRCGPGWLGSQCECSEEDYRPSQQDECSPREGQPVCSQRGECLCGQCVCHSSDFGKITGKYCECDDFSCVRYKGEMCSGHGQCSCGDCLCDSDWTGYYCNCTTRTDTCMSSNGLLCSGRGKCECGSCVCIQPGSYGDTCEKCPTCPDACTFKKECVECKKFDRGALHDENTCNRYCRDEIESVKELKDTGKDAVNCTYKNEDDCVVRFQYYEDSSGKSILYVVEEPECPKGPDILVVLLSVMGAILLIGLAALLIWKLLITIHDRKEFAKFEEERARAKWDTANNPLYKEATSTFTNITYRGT
Sequence (P06756 31-889 limits assumed): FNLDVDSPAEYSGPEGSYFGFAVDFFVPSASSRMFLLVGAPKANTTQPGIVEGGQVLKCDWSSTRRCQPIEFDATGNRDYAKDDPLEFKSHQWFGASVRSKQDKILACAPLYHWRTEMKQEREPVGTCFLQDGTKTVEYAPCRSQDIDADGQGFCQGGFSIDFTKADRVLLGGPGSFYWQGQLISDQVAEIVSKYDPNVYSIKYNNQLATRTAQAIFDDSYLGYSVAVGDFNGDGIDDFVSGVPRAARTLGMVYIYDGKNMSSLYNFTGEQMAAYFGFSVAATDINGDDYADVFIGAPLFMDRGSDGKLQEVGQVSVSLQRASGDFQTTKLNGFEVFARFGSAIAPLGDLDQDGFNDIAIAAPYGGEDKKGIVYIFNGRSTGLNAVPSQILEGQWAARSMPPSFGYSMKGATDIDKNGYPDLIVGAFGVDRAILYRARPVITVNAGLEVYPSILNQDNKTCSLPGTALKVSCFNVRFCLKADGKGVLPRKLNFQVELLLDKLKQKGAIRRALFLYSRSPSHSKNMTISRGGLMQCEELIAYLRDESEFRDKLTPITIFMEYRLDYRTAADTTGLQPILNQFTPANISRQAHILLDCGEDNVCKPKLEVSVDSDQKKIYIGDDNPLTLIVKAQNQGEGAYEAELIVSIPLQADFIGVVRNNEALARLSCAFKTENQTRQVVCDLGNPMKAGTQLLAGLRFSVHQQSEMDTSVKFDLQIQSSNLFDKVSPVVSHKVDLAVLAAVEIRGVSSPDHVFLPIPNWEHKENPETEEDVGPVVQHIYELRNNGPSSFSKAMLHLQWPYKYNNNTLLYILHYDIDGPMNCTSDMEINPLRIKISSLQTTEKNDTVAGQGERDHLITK
Sequence (P06756 891-1048 limits assumed): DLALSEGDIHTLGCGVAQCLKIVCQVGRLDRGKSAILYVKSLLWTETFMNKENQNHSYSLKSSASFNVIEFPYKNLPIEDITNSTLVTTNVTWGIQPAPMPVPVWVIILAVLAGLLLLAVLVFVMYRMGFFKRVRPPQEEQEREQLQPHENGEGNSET
Test: Inhibitory activity against human alphaV-beta3 integrin using SPAV3 assay
Format: protein-complex assay
pIC50: −log10 of the molar value.
Returns t if the recorded pIC50 is greater than or equal to 9, and f otherwise.

Record O=C(O)C[C@H](NC(=O)Cn1c(C2CC2)ccc(NCc2ccc3c(n2)NCCC3)c1=O)c1ccc2c(c1)OCC2 ; criterion: pIC50 no lower than 9. Met?
t

Record C#C[C@H](CC(=O)O)NC(=O)Cn1c(C2CC2)ccc(NCc2ccc3c(n2)NCCC3)c1=O ; criterion: pIC50 no lower than 9. Met?
f

Record O=C(O)C[C@H](NC(=O)Cn1c(C2CC2)ccc(NCc2ccc3c(n2)NCCC3)c1=O)c1cccnc1 ; criterion: pIC50 no lower than 9. Met?
t

Record O=C(O)C[C@H](NC(=O)Cc1ccc(CCc2ccc3c(n2)NCCC3)s1)c1cccnc1 ; criterion: pIC50 no lower than 9. Met?
f

---

Test system: Canis familiaris
Assay: Plasma clearance in vivo in dog by intravenous administration at a dose of 0.2 mg/kg
Assay type: ADME, organism-based, Canis lupus familiaris
Design: dose 0.2 mg/kg, route intravenous
readout_type: Cl (mL/min/kg)
Give just the numeric value; mL/min/kg need not be written.

As a guide, the following entries are already answered.
>>> obs_value("O=C(O)C[C@H](NC(=O)Cn1c(C2CC2)cnc(NCc2ccc3c(n2)NCCC3)c1=O)c1ccc2c(c1)OCO2")
26
>>> obs_value("O=C(O)C[C@H](NC(=O)Cn1c(C2CC2)cnc(NCc2ccc3c(n2)NCCC3)c1=O)c1cccc(F)c1")
26
>>> obs_value("CCc1cnc(NCc2ccc3c(n2)NCCC3)c(=O)n1CC(=O)N[C@@H](CC(=O)O)c1cccc(F)c1")
22
>>> obs_value("Cc1c(Cl)nc(NCc2ccc3c(n2)NCCC3)c(=O)n1CC(=O)N[C@@H](CC(=O)O)c1cccc(F)c1")
28
>>> obs_value("Cc1ccc(NCc2ccc3c(n2)NCCC3)c(=O)n1CC(=O)N[C@@H](CC(=O)O)c1cccnc1")
21

Here is another compound to look at.
Kindly indicate its recorded Cl. Item: O=C(O)C[C@H](NC(=O)Cn1c(C2CC2)ccc(NCc2ccc3c(n2)NCCC3)c1=O)c1cccc(F)c1
20

---

Test: Half-life in vivo in dog by intravenous administration at a dose of 1 mg/kg
Format: ADME, organism-based, Canis lupus familiaris
Design: dose 1 mg/kg, route intravenous
Rule: measured half-life below 1 h gets Criterion met; anything equal to or greater than 1 h gets Criterion not met.

>>> discrete_label("Cc1ccc(NCc2ccc3c(n2)NCCC3)c(=O)n1CC(=O)N[C@@H](CC(=O)O)c1cccnc1")
"Criterion met"
>>> discrete_label("CCc1cnc(NCc2ccc3c(n2)NCCC3)c(=O)n1CC(=O)N[C@@H](CC(=O)O)c1cccc(F)c1")
"Criterion not met"

# strict comparison: is reported half-life < 1 h? input = O=C(O)C[C@H](NC(=O)Cn1c(C2CC2)cnc(NCc2ccc3c(n2)NCCC3)c1=O)c1ccc2c(c1)OCO2
Criterion not met

# strict comparison: is reported half-life < 1 h? input = O=C(O)C[C@H](NC(=O)Cn1c(C2CC2)ccc(NCc2ccc3c(n2)NCCC3)c1=O)c1cccc(F)c1
Criterion met

# strict comparison: is reported half-life < 1 h? input = Cc1c(Cl)nc(NCc2ccc3c(n2)NCCC3)c(=O)n1CC(=O)N[C@@H](CC(=O)O)c1cccc(F)c1
Criterion not met

# strict comparison: is reported half-life < 1 h? input = O=C(O)C[C@H](NC(=O)Cn1c(C2CC2)cnc(NCc2ccc3c(n2)NCCC3)c1=O)c1cccc(F)c1
Criterion not met

---

Test: Oral bioavailability in dog (dose 0.2 mg/kg i.v.)
Assay type: ADME, organism-based, Canis lupus familiaris
Details: in vivo
readout_type: bioavailability (%)
Give just the numeric value; % need not be written.

As a guide, the following entries are already answered.
>>> obs_value("CCc1cnc(NCc2ccc3c(n2)NCCC3)c(=O)n1CC(=O)N[C@@H](CC(=O)O)c1cccc(F)c1")
4.3
>>> obs_value("O=C(O)C[C@H](NC(=O)Cn1c(C2CC2)ccc(NCc2ccc3c(n2)NCCC3)c1=O)c1cccc(F)c1")
3
>>> obs_value("O=C(O)C[C@H](NC(=O)Cn1c(C2CC2)cnc(NCc2ccc3c(n2)NCCC3)c1=O)c1ccc2c(c1)OCO2")
0.3

Here is another molecule to look at.
Kindly indicate its recorded bioavailability. Item: O=C(O)C[C@H](NC(=O)Cn1c(C2CC2)cnc(NCc2ccc3c(n2)NCCC3)c1=O)c1cccc(F)c1
0.3

---

Experiment: Half-life in vivo in dog by intravenous administration at a dose of 0.2 mg/kg
Type: ADME, organism-based, Canis lupus familiaris
Set-up: dose 0.2 mg/kg, route intravenous
Returns Met if the recorded half-life is greater than or equal to 1 h, and Not met otherwise.

Record O=C(O)C[C@H](NC(=O)Cn1c(C2CC2)cnc(NCc2ccc3c(n2)NCCC3)c1=O)c1cccc(F)c1 ; criterion: half-life no lower than 1 h. Met?
Met

Record CCc1cnc(NCc2ccc3c(n2)NCCC3)c(=O)n1CC(=O)N[C@@H](CC(=O)O)c1cccc(F)c1 ; criterion: half-life no lower than 1 h. Met?
Met

---

Target: Integrin alpha-V/beta-3 (Homo sapiens, UniProt P05106+P06756)
Assay: Inhibitory activity against human alpha V beta3 receptor using SPAV3 assay
Format: protein-complex assay
pIC50: −log10 of the molar value.
Returns Fulfilled if the recorded pIC50 is greater than or equal to 9, and Not fulfilled otherwise.

Example cases with answers are listed next.
>>> discrete_label("O=C(O)C[C@H](NC(=O)Cc1cccc(CCc2ccc3c(n2)NCCC3)c1)c1cccnc1")
"Not fulfilled"
>>> discrete_label("O=C(O)C[C@H](NC(=O)Cn1c(C2CC2)cnc(NCc2ccc3c(n2)NCCC3)c1=O)c1ccc2c(c1)OCO2")
"Fulfilled"
>>> discrete_label("Cc1c(Cl)nc(NCc2ccc3c(n2)NCCC3)c(=O)n1CC(=O)N[C@@H](CC(=O)O)c1cccc(F)c1")
"Not fulfilled"
>>> discrete_label("O=C(O)C[C@H](NC(=O)Cn1c(C2CC2)cnc(NCc2ccc3c(n2)NCCC3)c1=O)c1cccnc1")
"Fulfilled"
>>> discrete_label("O=C(O)C[C@H](NC(=O)Cn1c(C2CC2)c(Cl)nc(NCc2ccc3c(n2)NCCC3)c1=O)c1cccnc1")
"Fulfilled"

Record O=C(O)C[C@H](NC(=O)Cn1c(C2CC2)c(Cl)nc(NCc2ccc3c(n2)NCCC3)c1=O)c1cccc(F)c1 ; criterion: pIC50 no lower than 9. Met?
Not fulfilled

Record CCc1c(Cl)nc(NCc2ccc3c(n2)NCCC3)c(=O)n1CC(=O)N[C@@H](CC(=O)O)c1cccc(F)c1 ; criterion: pIC50 no lower than 9. Met?
Not fulfilled
